Listed here: items and their measured Kd.
# Tested System: T1, EsCas13d, nuclease-dead (Eubacterium siraeum, UniProt B0MS50, R295A;H300A;R849A;H854A)
# T1 sequence: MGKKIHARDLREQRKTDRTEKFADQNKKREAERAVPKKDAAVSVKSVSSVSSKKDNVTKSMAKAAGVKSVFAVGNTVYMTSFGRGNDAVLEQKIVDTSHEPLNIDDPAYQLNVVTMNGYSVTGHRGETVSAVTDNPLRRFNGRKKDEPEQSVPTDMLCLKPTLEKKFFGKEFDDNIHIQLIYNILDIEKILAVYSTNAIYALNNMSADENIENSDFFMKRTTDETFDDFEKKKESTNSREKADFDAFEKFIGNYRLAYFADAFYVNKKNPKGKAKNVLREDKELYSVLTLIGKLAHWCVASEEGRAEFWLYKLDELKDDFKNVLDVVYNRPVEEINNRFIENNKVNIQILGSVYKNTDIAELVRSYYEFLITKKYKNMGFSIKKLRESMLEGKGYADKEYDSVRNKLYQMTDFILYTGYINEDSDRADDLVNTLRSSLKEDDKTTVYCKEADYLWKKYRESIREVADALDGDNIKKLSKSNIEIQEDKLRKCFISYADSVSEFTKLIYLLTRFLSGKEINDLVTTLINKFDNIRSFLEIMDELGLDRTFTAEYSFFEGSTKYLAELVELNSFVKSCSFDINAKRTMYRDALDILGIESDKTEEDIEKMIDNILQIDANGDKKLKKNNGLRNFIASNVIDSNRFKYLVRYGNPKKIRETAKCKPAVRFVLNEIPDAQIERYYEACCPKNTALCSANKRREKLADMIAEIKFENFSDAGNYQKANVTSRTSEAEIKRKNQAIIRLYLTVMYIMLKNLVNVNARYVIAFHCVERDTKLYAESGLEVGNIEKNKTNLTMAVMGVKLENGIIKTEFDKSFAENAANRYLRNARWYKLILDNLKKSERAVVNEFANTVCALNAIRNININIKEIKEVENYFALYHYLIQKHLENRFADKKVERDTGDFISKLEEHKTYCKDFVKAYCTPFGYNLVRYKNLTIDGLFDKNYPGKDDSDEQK
# Procedure Summary: crRNA (strand 1, pre-loaded); Mg2+; 40 mM Tris-HCl pH 7.5, 150 mM NaCl, 6 mM MgCl2, 1 mM DTT, 0.1% Tween-20, 0.2 mg/ml BSA; 25 C; 10 min per concentration, then washed
# Assay Context: tags: His6-TwinStrep-SUMO cleaved; N-terminal SNAP kept (SNAP-Surface 488); label: 3' end held by stalled T7 RNA polymerase

Binder | Kd, nM
target 2 MT 5'PFS GGC 3'PFS AAG (mixed) RNA 1: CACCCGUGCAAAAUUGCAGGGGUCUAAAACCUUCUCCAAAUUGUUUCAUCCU RNA 2: GGGAAUGGAUCCACAUCUACGAAUUCGGCAGGAUGAAACAAUUUGGAGAAGAAGAGAUCGGAAGAGCACACGU | 13.1
target 1 MT 5'PFS AAA 3'PFS CGA (mixed) RNA 1: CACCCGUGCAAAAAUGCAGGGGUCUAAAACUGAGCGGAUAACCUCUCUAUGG RNA 2: GGGAAUGGAUCCACAUCUACGAAUUCAAACCAUAGAGAGGUUAUCCGCUCACGAAGAUCGGAAGAGCACACGU | 30
target 1 insU 3' of 20,insG 3' of 7 (mixed) RNA 1: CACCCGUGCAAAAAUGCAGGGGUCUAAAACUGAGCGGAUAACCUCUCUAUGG RNA 2: GGGAAUGGAUCCACAUCUACGAAUUCGUACCAUUAGAGAGGUUAUCGCGCUCACCGAGAUCGGAAGAGCACACGU | 11.8
target 1 insC 3' of 15,insG 3' of 8 (mixed) RNA 1: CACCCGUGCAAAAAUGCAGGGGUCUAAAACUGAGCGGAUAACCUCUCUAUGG RNA 2: GGGAAUGGAUCCACAUCUACGAAUUCGUACCAUAGAGCAGGUUAUGCCGCUCACCGAGAUCGGAAGAGCACACGU | 23.3
target 1 MT 5'PFS AUG 3'PFS CUC (mixed) RNA 1: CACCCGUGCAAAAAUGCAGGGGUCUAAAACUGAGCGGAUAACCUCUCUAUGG RNA 2: GGGAAUGGAUCCACAUCUACGAAUUCAUGCCAUAGAGAGGUUAUCCGCUCACUCAGAUCGGAAGAGCACACGU | 21.1
target 2 MT 5'PFS GUA 3'PFS CUU (mixed) RNA 1: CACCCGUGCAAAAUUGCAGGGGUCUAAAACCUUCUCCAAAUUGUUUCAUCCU RNA 2: GGGAAUGGAUCCACAUCUACGAAUUCGUAAGGAUGAAACAAUUUGGAGAAGCUUAGAUCGGAAGAGCACACGU | 10.2
target 3 C6U,U7G (mixed) RNA 1: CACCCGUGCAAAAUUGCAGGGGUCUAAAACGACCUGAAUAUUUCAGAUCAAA RNA 2: GGGAAUGGAUCCACAUCUACGAAUUCGUUUUUGAUCUGAAAUAUGUAGGUCUGCAGAUCGGAAGAGCACACGU | 39
target 2 MT 5'PFS UCA 3'PFS UUA (mixed) RNA 1: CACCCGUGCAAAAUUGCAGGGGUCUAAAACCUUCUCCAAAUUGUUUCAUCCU RNA 2: GGGAAUGGAUCCACAUCUACGAAUUCUCAAGGAUGAAACAAUUUGGAGAAGUUAAGAUCGGAAGAGCACACGU | 7.2
target 2 MT 5'PFS UUU 3'PFS UUA (mixed) RNA 1: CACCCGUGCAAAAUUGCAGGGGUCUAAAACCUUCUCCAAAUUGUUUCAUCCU RNA 2: GGGAAUGGAUCCACAUCUACGAAUUCUUUAGGAUGAAACAAUUUGGAGAAGUUAAGAUCGGAAGAGCACACGU | 9.9
target 1 insU 3' of 20,insC 3' of 15 (mixed) RNA 1: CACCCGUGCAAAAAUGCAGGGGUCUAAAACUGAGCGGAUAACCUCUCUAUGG RNA 2: GGGAAUGGAUCCACAUCUACGAAUUCGUACCAUUAGAGCAGGUUAUCCGCUCACCGAGAUCGGAAGAGCACACGU | 28
target 1 MT 5'PFS GUC 3'PFS AAG (mixed) RNA 1: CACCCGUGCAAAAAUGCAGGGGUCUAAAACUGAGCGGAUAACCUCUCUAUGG RNA 2: GGGAAUGGAUCCACAUCUACGAAUUCGUCCCAUAGAGAGGUUAUCCGCUCAAAGAGAUCGGAAGAGCACACGU | 20.5
target 2 MT 5'PFS UAU 3'PFS CUA (mixed) RNA 1: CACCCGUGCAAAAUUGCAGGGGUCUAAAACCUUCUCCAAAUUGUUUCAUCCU RNA 2: GGGAAUGGAUCCACAUCUACGAAUUCUAUAGGAUGAAACAAUUUGGAGAAGCUAAGAUCGGAAGAGCACACGU | 22.7
